Test system: K4 kissing-loop RNA reporter
Assay explanation: apparent KD of K4 kissing-loop reporter; higher = weaker reporter binding
Experimental setup: Eterna round: R107; input ligand: arginine 13.2 mM
# binning rule on apparent KD of K4 kissing-loop reporter: lowest (below 0.2 µM), middle (0.2 µM to below 0.4 µM), highest (0.4 µM or more)

Solved cases (6 shown):
Record sequence | Study target | Class label
GAGGUACAGCUGGCCGUCGAAUUGUCCGAUACCAGACACUCUCUAGUCCCUUGGCAGCGGUGGUAAGUGAUGUUUACAGGCGCCG [theeternabot_exclusion_KL_Theo_A_3] | K4 kissing-loop RNA reporter | lowest
ACGACGGCAGCUCAGUGAUGUUGGGCAUUACGAGGACCGGUACGGCCGCCACUCGCUGCUUUGAUCCGUGGAUGAACCUCAGCAU [theeternabot_sameState_KL_Trp_A_13] | K4 kissing-loop RNA reporter | highest
GAGAUAGCGACGGCCGCCACUAGUGAUGUUAGUGCUGGUAGAUAGAUACUGGAACAGAAAUGACGUAGGACCGGGUCAGAUAGAG [#01 K4 Tryptophan B Exclusion] | K4 kissing-loop RNA reporter | middle
UGACUGGAUUGAAGGAGCGCUAAACUCCUAGUGAUGUUAGGGAAACAAGACAAAGUCUUGAGGCAGGUAGGUCGCAAUCUAGUCU [FiskerMod 4 - Jieux - Same State - Arginine B] | K4 kissing-loop RNA reporter | lowest
UGAUAGGACAGAAGGAGCGGUAGUGAUGUUACCAAAAGGUUAAGGUGUCAAAAGACACCCUGCCAGGUAGGUCGCUGUCCUAUCU | K4 kissing-loop RNA reporter | lowest
GUGUAAGUGAUGUUUGCACACACGUCGGAUACCAGAGACUUUAGCCUCCCUUGGCAGCCGCCGGCCAUAAGAGCAAGUCGAUUUA [theeternabot_sameState_KL_Theo_A_20] | K4 kissing-loop RNA reporter | lowest

INPUT: Bin this entry: ACGCGCGCGAGUGAUGUUCGGAGCGGCUGGCAGGAUAUGUAGCAAUGCAGAAGGGUCGUGGCGGGCGCGGCGAAAGCCGCGCCCG [#2 Exclusion - FMN A Attempt #6 (HarryS)]
OUTPUT: middle

INPUT: Field entry: AUGUUGAGCGGAAGGAGCGGCUGAGCCAGUGAUGUUGGUUAAUCCAAGUGAUGUUGGAAAAGCCAGGUAGGUCGCCGCUUUACGU [whbob_SS_Arginine_B_2t144]
OUTPUT: highest

INPUT: Lookup AGUGAUGUUGUGUUGUGUUAGGGAAGUGAUCGAGGACCGGUACGGCCGCCACUCGAGUGAUGAGUGAGUGAUGUUUGUUUAGGGA [whbob_SS_Tryp_A_m8]
OUTPUT: highest

INPUT: Next sequence: AACACCCGCUAUGAUACCAGUGAAGUGAUGUUUUACUCCGGGCGUAAGACAAAGGUCAGCCACCCUUGGCAGCAUAUCCGCGUAU [theeternabot_exclusion_KL_Theo_B_35]
OUTPUT: highest

INPUT: # repeat for UUACUGAGUGAUGUUUGGAAAUAUCCUAGGCAGGAUAUGCGGAAACGCAGAAGGGCCACCUUCUAGUGAAGGAAACUUCGCUAUU [Ex FMN A 4]
OUTPUT: middle

* * *

Assign apparent KD of MS2 coat protein to each entry below.
System: MS2 coat protein
Assay explanation: apparent KD of MS2 coat protein; higher = weaker reporter binding
Experimental setup: Eterna round: R107; input ligand: arginine 13.2 mM

Record sequence	apparent KD of MS2 coat protein
UAGUUGCUGACGGCCGCCACUAGAACAUGAGGAUCACCCAUGUAUUCUAGUGGACAUGGGUGGACUAGGACCGGGUCAGCAACAU [(Trp1)-(Ms2)-(T)'-(M)'-(Trp2)_Design9]	21 nM
UUAAUCAGGUUAGAAAACUAAUUUGCAGAAGGAGCGUGAUAAAACACAGGUAGGUCGCUGAAGGGAACAUGAGGAUCACCCAUGU [AstrosSSArgA#10]	22.9 nM
GAGACGUCGGGAAGGAGCGCAUCCAAACCACACAUGAGGAUCACCCAUGUAUAAAUAUGCAUGCAGGUAGGUCGCCCGGUGUCCA [Xegeisge]	49.9 nM
AAUACCGGUCCUCGAAGCAUGGGUGAUCAACGAGGACCGGUACGGCCGCCACUCGAUAACAUGAGGAUCACCCAUGUAAUAAUAA [|T'-M'-Trp-Ms2|_Design5]	34.4 nM
GGUUGAUAUAUAUAUAUAUUGAUUACUGAAGGAGCGGGAAAUAACCCAGGUAGGUCGCAGAGAUCCACAUGAGGAUCACCCAUGU [!0.F]	31.9 nM

Here is another sequence to look at.
INPUT: Quick check: apparent KD of MS2 coat protein of AAUAAUAAGGCGGCCGCCACUACACAUGAGGAUCACCCAUGUCUCGCGGGCUUGCGUUGGGAAAGUAGGACCGGGCCAAUAAUAA [Exclusion - Tryptophan B (Freestyle 9)] ?
OUTPUT: 15.3 nM

* * *

System: MS2 coat protein
Assay explanation: apparent KD of MS2 coat protein; designed switch direction (-1 OFF switch, 1 ON switch): 1; higher = weaker reporter binding
Experimental setup: Eterna round: R98; input ligand: none
Provide the reported apparent KD of MS2 coat protein of each item.
Kindly format the answer as number then unit.

Solved entries (count: 4):
Record sequence | apparent KD of MS2 coat protein
UUUACAUGAGGAUCACCCAUGUCUGUCACGCGUGUGUGCAAUCAGGAUAUGAUCUCAAGAAUGAAUUAGAAGGGAUAACGUGAG [Attempt 5] | 366 nM
CAGCAAUUCUUAGGAUAUGCUCAGGAAUACUGAGCAGAAGGAAGAUAUACCUGAGGAUCACCCAGGUUAAACUGAAGCUGAAUA [Same State NG1 - A3C, U17G Submission 7B] | 15.7 nM
AAGAUACUUACAGGAUAUAGGGCAGAGGGUGCCCUAGAAGGGUGAACAUGAGGAUCACCCAUGUAUGUAUCAGAUUAGAAGGCA [Inleesti] | 43.3 nM
UCACUCACGUCAGGAUAUGGAUCGGAAAACGAUCCAGAAGGGACCUGCAAACGUGAGGAUCACCCACGUUCCAAUAACGAGUGA [SameSame 11 - Jieux - Same State NG 1] | 35.4 nM

Here are 6 sequences. What values of apparent KD of MS2 coat protein were reported for them?
1. AAAACAUGAGGAUCACCCAUGUAUAGAUCGGUUGUUAGGAGUGAGGAUAUGCUUAAAAUAAGGUAGCAGAAGGCACUGGGUACA [JR_SSNG3_Sub071]
2. CGAGACACUUGAGGAUAUGCUCAGGAUAACUGAGCAGAAGGCAGGAAAACCUGAGGAUCACCCAGGUAACUGGAAAGUCUCGAA [Same State NG1 - A3C, U17G Submission 5F-G46A]
3. AUAGGUUAAGGAGGAUAUAGAGGGAGAAGUAAACAUGAGGAUCACCCAUGUAUUUAAUUAGUUUACUAGAAGGCUUGUGAUUGU
4. GGUCCAUCAUGAGGAUAUGGCACCUUAUUGGUGCCAGAAGGCAUGUCUUUUGACAUGAGGAUCACCCAUGUAAUAAAUUGGACC [Pyrimidine booster 6]
5. CUGCAAUUCUUAGGAUAUGCUCAGGAUAACUGAGCAGAAGGAAGAUAUACCUGAGGAUCACCCAGGUUAAACUGGAGCAGAAUA [Same State NG1 - A3C, U17G Submission 8B]
6. CAUGUCCUCACAGGAUAUGCACCACUUUGUGGUGCAGAAGGGUGGAAACAUGAGGAUCACCCAUGUGGACAUGAUAUAUUUAAU [Denovo 7]

OUTPUT:
["15.3 nM", "17.9 nM", "45.9 nM", "1920 nM", "179 nM", "164 nM"]

Batch of 2 sequences: report apparent KD of MS2 coat protein for each.
1. AAAUAAAAUAUAGGAUAUGGAAACAUGAGGAUCACCCAUGUAAAAUAAAAUAAAUAAUAAUAUAACCAGAAGGAUAAAAUAUAA [LRO002_SS NG 2]
2. GGACGUCACAUUAACAUGAGGAUCACCCAUGUCAAAAGACAUGAGGAUAUGGAUCCUAAUUGGAUCCAGAAGGCAUGGACGUCC [EliMod 1 - Jieux - Same State NG 3]

OUTPUT:
1: 33.9 nM; 2: 680 nM

* * *

Test system: K4 kissing-loop RNA reporter;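 further: bound reporter read as fluorescence of individual clusters on recovered sequencing chips by microscopy, with normalized cluster intensities fitted with a binding model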
Assay explanation: apparent KD of K4 kissing-loop reporter; higher = weaker reporter binding
Experimental setup: Eterna round: R107; input ligand: FMN 200 uM
Can you tell me apparent KD of K4 kissing-loop reporter for the items I'm about to list?
Write your answer as a measured quantity: the number, then the unit.

These recorded examples may help you get a feel for the data.
Record sequence | Test result
CGAGUGAUGUUCGAAGAGUUGUUAAGCGAUACCAGCUAGGAGACUGGCCCUUGGCAGCGUAAUAAGUUAAUAAAUAAAUGAUCAC [whbob_Ex_Theo_A_th65] | 0.293 µM
UGGACCAAGGAGUGAUGUUCCAAAUGUGAUACCAGCCACGAAAGUGGCCCUUGGCAGCACUGCCAAAGGACGAAAGUCCGGUCCU [#SwitchBubble 10 #StaticStem #K4Early] | 0.371 µM

// for each sequence below, give its apparent KD of K4 kissing-loop reporter
1. AACGUUUUGAGAAGGAGCGCGUUAAGCAGUGAUGUUGCUGUAUUUUAUCCAAUUCAUAUAUCGCAGGUAGGUCGCUCAAUACGUA [JR_Nu_SSArginiB_Sub027]
2. GGCCGAAGAGAAGGAUAUGGUUUCACGCGUCGUUAGUGAUGUUAAUGCGCAUGCCUUAGUAUAGAGCCAGAAGGUCUGGUCAGAA [theeternabot_sameState_KL_FMN_B_34]

OUTPUT:
["0.574 µM", "0.17 µM"]

Working through the 2 sequences below one at a time, give apparent KD of K4 kissing-loop reporter for each.
1. CGUUCCUCUGUCGAUACCAGCUUCAGUUGGCGGCCAGUGAUGUUGGUAUCGCCGAUGCCAAGCCCUUGGCAGCGACAGGAGACCC [Usleanza]
2. AAGCUACGCGCGGCCGCCACUGUUUAUGUAUAAAUGCGUCGCUCACUGCUUUAGUGAUGUUGAAGCAGGACCGGGCGAAUGGUAC [theeternabot_exclusion_KL_Trp_B_15]

OUTPUT:
1: 0.155 µM; 2: 0.0809 µM
